protocol.summary: In vitro transfection of cells with eGFP-mRNA lipid nanoparticle (LNP preparation), fluorescence imaging and flow cytometry
Type: cell-based, mouse
study.conditions: mouse, dc2.4 cells, 200 ng of mRNA per well, after 24 hours; read-out: Cell viability, %
Provide the reported viability at 24 h of each item.
Numbers only, in %.

CCCCCCCCCCCCOC(=O)CCCN(CCO)CCCN(CCCC(=O)OCCCCCCCCCCCC)CCCC(=O)OCCCCCCCCCCCC [Example 94] ... 98.6
CCCCCCCCCCCCCOC(=O)CCCCCN(CCCO)CCCN(CCCCCC(=O)OCCCCCCCCCCCCC)CCCCCC(=O)OCCCCCCCCCCCCC [Example 30] ... 96.9
CCCCCCCCCCCOC(=O)CCCCCCN(CCO)CCCN(CCCCCCC(=O)OCCCCCCCCCCC)CCCCCCC(=O)OCCCCCCCCCCC [Example 32] ... 96.6
CCCCCCCCCCCCCOC(=O)CCCCCCN(CCCO)CCCN(CCCCCCC(=O)OCCCCCCCCCCCCC)CCCCCCC(=O)OCCCCCCCCCCCCC [Example 34] ... 95
CCCCCCCCCCCCCOC(=O)CCCCCCCN(CCO)CCCN(CCCCCCCC(=O)OCCCCCCCCCCCCC)CCCCCCCC(=O)OCCCCCCCCCCCCC [Example 13] ... 91.3

Please find the next compound below.
## Task Which viability at 24 h is reported for this compound? CCCCCCCCCCCOC(=O)CCCCCN(CCCO)CCCN(CCCCCC(=O)OCCCCCCCCCCC)CCCCCC(=O)OCCCCCCCCCCC [Example 27]
## Result 98.2

These data points were gathered from patent EP4678629A1.
